# Species on record: Rattus norvegicus
# experiment-description: Open TG-GATES - Regimen: Daily Repeat
# Assay type: toxicity, organism-based, Sprague-Dawley
# Parameters: regimen Daily Repeat, gender Male, age 6 weeks
# run-parameters: in vivo, po, 1000 mg/kg, […], tissue Plasma, route gavage, dose level High, time 28 day
Hi! Could you tag entries with TG below 100 mg/dL as Criterion met, and those at or above as Criterion not met? Much appreciated.

Here's what some known entries look like.
[
  {
    "molecule": "CNC(=C[N+](=O)[O-])NCCSCc1ccc(CN(C)C)o1 [RANITIDINE]",
    "assigned-category": "Criterion met"
  },
  {
    "molecule": "O=C(OC[C@H]1O[C@@H](OC(=O)c2cc(O)c(O)c(OC(=O)c3cc(O)c(O)c(O)c3)c2)[C@H](OC(=O)c2cc(O)c(O)c(OC(=O)c3cc(O)c(O)c(O)c3)c2)[C@@H](OC(=O)c2cc(O)c(O)c(OC(=O)c3cc(O)c(O)c(O)c3)c2)[C@@H]1OC(=O)c1cc(O)c(O)c(OC(=O)c2cc(O)c(O)c(O)c2)c1)c1cc(O)c(O)c(OC(=O)c2cc(O)c(O)c(O)c2)c1 [TANNIC ACID]",
    "assigned-category": "Criterion not met"
  },
  {
    "molecule": "CN/C(=N/CCSCc1nc[nH]c1C)NC#N [CIMETIDINE]",
    "assigned-category": "Criterion not met"
  },
  {
    "molecule": "COC(=O)C1=C(C)NC(C)=C(C(=O)OC)C1c1ccccc1[N+](=O)[O-] [NIFEDIPINE]",
    "assigned-category": "Criterion not met"
  },
  {
    "molecule": "CCOc1ccc(NC(C)=O)cc1 [PHENACETIN]",
    "assigned-category": "Criterion not met"
  }
]

hey, is TG for Cc1nnc2n1-c1ccc(Cl)cc1C(c1ccccc1Cl)=NC2 [TRIAZOLAM] lower than 100 mg/dL or not?
Criterion met

###

# Species on record: Rattus norvegicus
# experiment-description: Open TG-GATES - Regimen: Single
# Format: toxicity, organism-based, Sprague-Dawley
# Set-up: regimen Single, gender Male, age 6 weeks
# run-parameters: in vivo, po, 300 mg/kg, 9 h, tissue Plasma, route gavage, dose level Middle
recorded-endpoint: RALB (g/dL)
Respond with the bare value in g/dL.

Past entries and their recorded results:
[
  {
    "compound": "O=C(OC[C@H]1O[C@@H](OC(=O)c2cc(O)c(O)c(OC(=O)c3cc(O)c(O)c(O)c3)c2)[C@H](OC(=O)c2cc(O)c(O)c(OC(=O)c3cc(O)c(O)c(O)c3)c2)[C@@H](OC(=O)c2cc(O)c(O)c(OC(=O)c3cc(O)c(O)c(O)c3)c2)[C@@H]1OC(=O)c1cc(O)c(O)c(OC(=O)c2cc(O)c(O)c(O)c2)c1)c1cc(O)c(O)c(OC(=O)c2cc(O)c(O)c(O)c2)c1 [TANNIC ACID]",
    "recorded-endpoint": "RALB",
    "u": "g/dL",
    "observed-result": 3.7
  },
  {
    "compound": "CN/C(=N/CCSCc1nc[nH]c1C)NC#N [CIMETIDINE]",
    "recorded-endpoint": "RALB",
    "u": "g/dL",
    "observed-result": 3.4
  },
  {
    "compound": "Cc1nnc2n1-c1ccc(Cl)cc1C(c1ccccc1Cl)=NC2 [TRIAZOLAM]",
    "recorded-endpoint": "RALB",
    "u": "g/dL",
    "observed-result": 2.4
  }
]

Fill in the blank: the reported RALB of CNC(=C[N+](=O)[O-])NCCSCc1ccc(CN(C)C)o1 [RANITIDINE] is ____.
3.4

Look up RALB for this compound: COC(=O)C1=C(C)NC(C)=C(C(=O)OC)C1c1ccccc1[N+](=O)[O-] [NIFEDIPINE]
2.5
